IC50: recorded values
- measured target: recombinant JAK2 (amino acids 831-1132) (Homo sapiens (Human))
- assay details: Enzyme inhibition studies, JAK2 (5 mM ATP, Caliper)
observed property: IC50 (µM)

1) COC[C@H](C(=O)Nc1cccc2c(-c3nc(Nc4cccc(S(C)(=O)=O)c4F)ncc3C)c[nH]c12)N1C[C@@H](C)N[C@H](C)C1 = 1.2
2) CCS(=O)(=O)c1cccc(Nc2ncc(C)c(-c3c[nH]c4c(NC(=O)[C@@H](C)N5CCN(C)CC5)cccc34)n2)c1F = 4.12
3) CCOC[C@H](C(=O)Nc1cccc2c(-c3nc(Nc4cccc(S(C)(=O)=O)c4F)ncc3C)c[nH]c12)N1CCN(C)CC1 = 4.14
4) C[C@H](C(=O)Nc1cccc2c(-c3nc(Nc4cccc(S(C)(=O)=O)c4F)ncc3F)c[nH]c12)N1CCCN(C)CC1 = 17.8
5) COC[C@H](C(=O)Nc1cccc2c(-c3nc(Nc4cccc(S(C)(=O)=O)c4F)ncc3C)c[nH]c12)N1C[C@H](C)N(C)[C@@H](C)C1 = 2.56

---

- measured target: recombinant JAK3 (amino acids 781-1124) (Homo sapiens (Human), UniProt P52333)
- Sequence (P52333 781-1124): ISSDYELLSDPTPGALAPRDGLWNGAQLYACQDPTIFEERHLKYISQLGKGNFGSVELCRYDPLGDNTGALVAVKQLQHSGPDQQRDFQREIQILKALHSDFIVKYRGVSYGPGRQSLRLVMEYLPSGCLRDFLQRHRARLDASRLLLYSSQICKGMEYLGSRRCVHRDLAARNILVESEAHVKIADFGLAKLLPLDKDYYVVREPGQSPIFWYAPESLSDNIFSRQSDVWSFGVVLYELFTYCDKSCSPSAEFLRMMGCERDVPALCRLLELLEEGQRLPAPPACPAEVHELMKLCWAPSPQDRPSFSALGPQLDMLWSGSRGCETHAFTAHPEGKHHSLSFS
- assay details: Enzyme inhibition studies, JAK3 (5 mM ATP, Caliper)
pIC50: −log10 of the molar value.
observed property: pIC50

1. CC[C@@H](C(=O)Nc1cccc2c(-c3nc(Nc4cccc(S(C)(=O)=O)c4F)ncc3C)c[nH]c12)N1CCN(C)CC1 [Example 13] = < 4.52
2. CC[C@@H](C(=O)Nc1cccc2c(-c3nc(Nc4cccc(S(C)(=O)=O)c4F)ncc3C)c[nH]c12)N1CCCN(C)CC1 [Example 36] = < 4.52
3. CC[C@@H](C(=O)Nc1cccc2c(-c3nc(Nc4cccc(S(C)(=O)=O)c4F)ncc3F)c[nH]c12)N1CCCN(C)CC1 [Example 18] = < 4.52

---

- measured target: recombinant JAK2 (amino acids 831-1132) (Homo sapiens (Human), UniProt O60674)
- Sequence (O60674 831-1132): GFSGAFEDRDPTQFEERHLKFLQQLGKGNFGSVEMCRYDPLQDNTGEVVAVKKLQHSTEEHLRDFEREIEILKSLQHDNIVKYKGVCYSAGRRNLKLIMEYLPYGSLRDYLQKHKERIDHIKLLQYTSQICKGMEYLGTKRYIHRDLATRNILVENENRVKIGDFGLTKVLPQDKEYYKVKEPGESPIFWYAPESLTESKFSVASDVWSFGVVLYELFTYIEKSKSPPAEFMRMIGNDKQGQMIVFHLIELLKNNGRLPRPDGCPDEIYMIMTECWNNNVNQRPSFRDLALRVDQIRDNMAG
- assay details: Enzyme inhibition studies, JAK2 (5 mM ATP, Caliper)
pIC50: −log10 of the molar value.
observed property: pIC50

1) CC[C@H](C(=O)Nc1cccc2c(-c3nc(Nc4cccc(S(C)(=O)=O)c4F)ncc3C)c[nH]c12)N1C[C@@H](C)N[C@H](C)C1 = 6.34
2) CC[C@H](C(=O)Nc1cccc2c(-c3nc(Nc4cccc(S(C)(=O)=O)c4F)ncc3C)c[nH]c12)N1CCN(C)CC1 = 5.61
3) CC[C@H](C(=O)Nc1cccc2c(-c3nc(Nc4cccc(S(C)(=O)=O)c4F)ncc3F)c[nH]c12)N1C[C@@H](C)N[C@H](C)C1 = 5.75

---

- measured target: recombinant JAK1 (amino acids 866-1154) (Homo sapiens (Human))
- assay details: Enzyme inhibition studies, JAK1 (5 mM ATP, Caliper)
- Assay type: biochemical
- Experimental: JAK enzyme was expressed as N-terminal GST fusion in insect cells and purified by glutathione-affinity and size-exclusion chromatographies. Enzymes were assayed at their approximated high end of physiological ATP concentration of 5 mM, in the presence of inhibitor dosed at 30, 3, 0.3, 0.03, 0.003 and 0 μM final test concentrations. Phosphorylated and unphosphotylated peptides were separated and quantified by a Caliper LC3000 system (Caliper Life Sciences, MA) for calculating percent inhibition.
pIC50: −log10 of the molar value.
observed property: pIC50

1. CC[C@@H](C(=O)Nc1cccc2c(-c3nc(Nc4cccc(S(C)(=O)=O)c4F)ncc3C)c[nH]c12)N1C[C@H](C)N(C)[C@@H](C)C1 [Example 19] = 6.84
2. CC[C@H](C(=O)Nc1cccc2c(-c3nc(Nc4cccc(S(C)(=O)=O)c4F)ncc3F)c[nH]c12)N1CCCN(C)CC1 [Example 17] = 8.44
3. CC[C@H](C(=O)Nc1cccc2c(-c3nc(Nc4cccc(S(C)(=O)=O)c4F)ncc3F)c[nH]c12)N1CCN(C)CC1 [Example 38] = 8.48
4. COC[C@H](C(=O)Nc1cccc2c(-c3nc(Nc4cccc(S(C)(=O)=O)c4F)ncc3F)c[nH]c12)N1C[C@H](C)N(C)[C@@H](C)C1 [Example 41] = 8.40
5. COC[C@@H](C(=O)Nc1cccc2c(-c3nc(Nc4cccc(S(C)(=O)=O)c4F)ncc3F)c[nH]c12)N1CCN(C)C[C@H]1C [Example 56] = 6.91
6. Cc1cnc(Nc2cccc(S(C)(=O)=O)c2F)nc1-c1c[nH]c2c(NC(=O)[C@@H](C)N3CCN(C)C[C@H]3C)cccc12 [Example 48] = 8.52
7. C[C@H](C(=O)Nc1cccc2c(-c3nc(Nc4cccc(S(C)(=O)=O)c4F)ncc3F)c[nH]c12)N1CCCN(C)CC1 [Example 46] = 7.70
8. CC[C@H](C(=O)Nc1cccc2c(-c3nc(Nc4cccc(S(C)(=O)=O)c4F)ncc3C)c[nH]c12)N1CCN(C)CC1C (stereo in doubt) [Example 60] = 8.13
9. Cc1cnc(Nc2cccc(S(C)(=O)=O)c2F)nc1-c1c[nH]c2c(NC(=O)[C@H](C)N3C[C@H](C)N[C@@H](C)C3)cccc12 [Example 10] = 7.40
10. Cc1cnc(Nc2cccc(S(C)(=O)=O)c2F)nc1-c1c[nH]c2c(NC(=O)[C@H](COCc3ccccc3)N3CCN(C)CC3)cccc12 [Example 65] = 7.14

---

- measured target: recombinant JAK2 (amino acids 831-1132) (Homo sapiens (Human), UniProt O60674)
- assay details: Enzyme inhibition studies, JAK2 (5 mM ATP, Caliper)
observed property: log10(IC50) (log10 of the value in µM)

1. CC[C@H](C(=O)Nc1cccc2c(-c3nc(Nc4cccc(S(C)(=O)=O)c4F)ncc3F)c[nH]c12)N1CCCN(C)CC1 = 0.69
2. COC[C@@H](C(=O)Nc1cccc2c(-c3nc(Nc4cccc(S(C)(=O)=O)c4F)ncc3C)c[nH]c12)N1C[C@@H](C)N[C@H](C)C1 = 0.87
3. COC[C@H](C(=O)Nc1cccc2c(-c3nc(Nc4cccc(S(C)(=O)=O)c4F)ncc3F)c[nH]c12)N1CCCN(C)CC1 = -0.14
4. Cc1cnc(Nc2cccc(S(C)(=O)=O)c2F)nc1-c1c[nH]c2c(NC(=O)[C@@H](C)N3CCNCC3)cccc12 = 0.54
5. CC[C@@H](C(=O)Nc1cccc2c(-c3nc(Nc4cccc(S(C)(=O)=O)c4F)ncc3C)c[nH]c12)N1CCN(C)CC1 = 1.42
6. CC[C@@H](C(=O)Nc1cccc2c(-c3nc(Nc4cccc(S(C)(=O)=O)c4F)ncc3F)c[nH]c12)N1C[C@@H](C)N[C@H](C)C1 = 0.06
7. Cc1cnc(Nc2cccc(S(C)(=O)=O)c2F)nc1-c1c[nH]c2c(NC(=O)[C@H](C)N3C[C@H](C)N[C@@H](C)C3)cccc12 = 1.32
8. COC[C@@H](C(=O)Nc1cccc2c(-c3nc(Nc4cccc(S(C)(=O)=O)c4F)ncc3C)c[nH]c12)N1CCN(C)C[C@H]1C = 0.83
9. Cc1cnc(Nc2cccc(S(C)(=O)=O)c2F)nc1-c1c[nH]c2c(NC(=O)[C@@H](C)N3CCN(C)CC3)cccc12 = 0.87

---

# IC50 per record follows
- measured target: recombinant JAK2 (amino acids 831-1132) (Homo sapiens (Human), UniProt O60674)
- assay details: Enzyme inhibition studies, JAK2 (5 mM ATP, Caliper)
- Format: biochemical
observed property: IC50

1. Cc1cnc(Nc2cccc(S(C)(=O)=O)c2F)nc1-c1c[nH]c2c(NC(=O)[C@H](C)N3CCNCC3)cccc12 = 6590 nM
2. COC[C@H](C(=O)Nc1cccc2c(-c3nc(Nc4cccc(S(C)(=O)=O)c4F)ncc3C)c[nH]c12)N1CCCN(C)CC1 = 604 nM
3. CC[C@@H](C(=O)Nc1cccc2c(-c3nc(Nc4cccc(S(C)(=O)=O)c4F)ncc3C)c[nH]c12)N1C[C@@H](C)N[C@H](C)C1 = 162 nM
4. COC[C@H](C(=O)Nc1cccc2c(-c3nc(Nc4cccc(S(C)(=O)=O)c4F)ncc3F)c[nH]c12)N1CCN(C)C[C@H]1C = 709 nM

---

- measured target: recombinant JAK1 (amino acids 866-1154) (Homo sapiens (Human), UniProt P23458)
- Sequence (P23458 866-1154): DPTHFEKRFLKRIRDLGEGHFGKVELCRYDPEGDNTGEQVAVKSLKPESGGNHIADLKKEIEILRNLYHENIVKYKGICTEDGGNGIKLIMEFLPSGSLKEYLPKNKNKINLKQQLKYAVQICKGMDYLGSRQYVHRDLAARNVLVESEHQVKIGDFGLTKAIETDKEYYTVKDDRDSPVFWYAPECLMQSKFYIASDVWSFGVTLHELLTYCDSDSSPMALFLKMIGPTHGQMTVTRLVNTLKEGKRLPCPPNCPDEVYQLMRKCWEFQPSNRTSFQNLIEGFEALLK
- assay details: Enzyme inhibition studies, JAK1 (5 mM ATP, Caliper)
- Format: biochemical
Lab note: compare IC50 with 20 nM, writing TRUE if less and FALSE if equal or more.

1. Cc1cnc(Nc2cccc(S(C)(=O)=O)c2F)nc1-c1c[nH]c2c(NC(=O)[C@@H](C)N3CCNCC3)cccc12 = TRUE
2. CC[C@@H](C(=O)Nc1cccc2c(-c3nc(Nc4cccc(S(C)(=O)=O)c4F)ncc3C)c[nH]c12)N1CCN(C)CC1C (stereo in doubt) [Example 50] = FALSE
3. CC[C@@H](C(=O)Nc1cccc2c(-c3nc(Nc4cccc(S(C)(=O)=O)c4F)ncc3F)c[nH]c12)N1C[C@H](C)N(C)[C@@H](C)C1 = FALSE
4. CC(C(=O)Nc1cccc2c(-c3nc(Nc4cccc(S(C)(=O)=O)c4F)ncc3F)c[nH]c12)N1CCN(C)C[C@H]1C (stereo in doubt) = TRUE
5. COC[C@H](C(=O)Nc1cccc2c(-c3nc(Nc4cccc(S(C)(=O)=O)c4F)ncc3F)c[nH]c12)N1C[C@@H](C)N[C@H](C)C1 = TRUE
6. Cc1cnc(Nc2cccc(S(C)(=O)=O)c2F)nc1-c1c[nH]c2c(NC(=O)[C@H](C)N3CCN(C)CC3)cccc12 = FALSE
7. COC[C@@H](C(=O)Nc1cccc2c(-c3nc(Nc4cccc(S(C)(=O)=O)c4F)ncc3F)c[nH]c12)N1CCCN(C)CC1 = FALSE
8. CC[C@@H](C(=O)Nc1cccc2c(-c3nc(Nc4cccc(S(C)(=O)=O)c4F)ncc3F)c[nH]c12)N1C[C@@H](C)N[C@H](C)C1 = TRUE
9. CC[C@@H](C(=O)Nc1cccc2c(-c3nc(Nc4cccc(S(C)(=O)=O)c4F)ncc3C)c[nH]c12)N1CCN(C)CC1 = FALSE
10. COC[C@H](C(=O)Nc1cccc2c(-c3nc(Nc4cccc(S(C)(=O)=O)c4F)ncc3C)c[nH]c12)N1C[C@@H](C)N[C@H](C)C1 = TRUE
11. COC[C@H](C(=O)Nc1cccc2c(-c3nc(Nc4cccc(S(C)(=O)=O)c4F)ncc3F)c[nH]c12)N1CCN(C)C[C@H]1C = TRUE
12. COC[C@H](C(=O)Nc1cccc2c(-c3nc(Nc4cccc(S(C)(=O)=O)c4F)ncc3C)c[nH]c12)N1C[C@H](C)N(C)[C@@H](C)C1 = TRUE
